system: IGROV1 ovarian; assay: NCI tumour cell line growth inhibition, 48 h
quantity: log10 of TGI (log10 of the value in µM)

compound	assayed_system	log10 of TGI
CCOC(=O)C(=Cc1cc(OC)ccc1OC)C(=O)OCC	IGROV1 ovarian	1.77
CC1=C(C#N)C2C(=C(N)Oc3ccccc32)C(N)=N1 (stereo not given)	IGROV1 ovarian	1.88
O=c1cc(-c2ccccc2)oc2ccc(-c3ccc4oc(-c5ccccc5)cc(=O)c4c3)cc12	IGROV1 ovarian	1.93
COc1ccc2[nH]c(=O)c(/C=C/C(=O)/C=C/c3ccc(O)c(OC)c3)cc2c1	IGROV1 ovarian	0.63
CC1(O)CC2(O)C=CC3=C(C(=O)c4cccc(O)c4C3=O)C2(O)C(=O)C1O (stereo not given)	IGROV1 ovarian	1.03
COc1c(NC(=O)CC(C)=O)[c]([Hg][O]C(C)=O)c(OC)c(Cl)[c]1[Hg][O]C(C)=O	IGROV1 ovarian	1.45

----------
The following compounds are shown together with reported TGI values.
test system: HCT-116 colon; assay: NCI tumour cell line growth inhibition, 48 h

compound	TGI
COc1cccc(-n2ncc3c(N/N=C/c4ccc(S(C)(=O)=O)cc4)ncnc32)c1	> 25 µM
NC(=S)NNC(=O)CCC(=O)Nc1ccc(Cl)cc1Cl	> 100 µM
NCCCC1NC(=O)/C(=C(O)/C=C/C2CCC[C@@H]2CC2SCCS2)C1=O (stereo partly drawn)	> 100 µM
O=C(O)Cc1cccc2c1OC(c1ccccc1)C(C(=O)c1ccccc1)C2=O (stereo not drawn)	> 100 µM
O=C1C[C@@H](Sc2ccccc2)C2(OCCO2)[C@H]2ON3CCC[C@@H]3[C@@H]12	2.99 µM
COC(=O)c1c2c(c(-c3ccccc3)c3c1-c1nc(Cl)ccc1CC3)CCc1ccc(Cl)nc1-2	> 100 µM
COc1cc2c(cc1Oc1ccc(OC)c3c1CC1c4c(cc(OC)c(OC)c4-3)CCN1C)CC1c3c(cc(OC)c(OC)c3-2)CCN1C (stereo not drawn)	4.49 µM
CCCCCCCCCCCCCCCCOCC(COP(=O)([O-])OCC[n+]1ccc(N(C)C)cc1)OCC (stereo not drawn)	24.5 µM
Cc1cc(=O)oc2c1cc(OCC(=O)OCCN1CCCCC1)c1occ(C)c12	> 100 µM
Nc1ccc2cc3[nH]c4cc(N)ccc4c3nc2c1	0.456 µM
COc1ccc2[nH]c(=O)c(/C=C/C(=O)/C=C/c3ccc(O)c(OC)c3)cc2c1	0.338 µM
O=Cc1ccc(Oc2c3ccccc3nc3occc23)cc1	28.7 µM
COc1ccc([C@H]2C=C(c3cc(F)c(Cl)cc3Cl)NC(=S)N2)cc1	84.9 µM
Cc1ccsc1C(=O)C(CC(=O)c1cccs1)c1ccsc1 (stereo not drawn)	> 100 µM
CC(=O)C1C(=O)C(=O)N(c2ccccc2N2C(=O)C(=O)C(C(C)=O)C2=O)C1=O (stereo not drawn)	> 100 µM
COc1c(C)c(C/C=C(\C)CCCCO)c(OC)c(OC)c1OC	> 100 µM
COc1cc2c(cc1OC)C1CCc3ccccc3CN1CC2 (stereo not drawn)	> 100 µM
O=C(OCC1OC(OC(=O)c2cc(O)c(O)c(OC(=O)c3cc(O)c(O)c(O)c3)c2)C(OC(=O)c2cc(O)c(O)c(OC(=O)c3cc(O)c(O)c(O)c3)c2)C(OC(=O)c2cc(O)c(O)c(OC(=O)c3cc(O)c(O)c(O)c3)c2)C1OC(=O)c1cc(O)c(O)c(OC(=O)c2cc(O)c(O)c(O)c2)c1)c1cc(O)c(O)c(OC(=O)c2cc(O)c(O)c(O)c2)c1 (stereo not drawn)	> 50 µM
